# system under test: ActRIIA and ActRIIB (on TGFB/SMAD SBE Reporter HEK293 cells) (human)
# Sequence (chain, as listed by the source, chain 1 of 2): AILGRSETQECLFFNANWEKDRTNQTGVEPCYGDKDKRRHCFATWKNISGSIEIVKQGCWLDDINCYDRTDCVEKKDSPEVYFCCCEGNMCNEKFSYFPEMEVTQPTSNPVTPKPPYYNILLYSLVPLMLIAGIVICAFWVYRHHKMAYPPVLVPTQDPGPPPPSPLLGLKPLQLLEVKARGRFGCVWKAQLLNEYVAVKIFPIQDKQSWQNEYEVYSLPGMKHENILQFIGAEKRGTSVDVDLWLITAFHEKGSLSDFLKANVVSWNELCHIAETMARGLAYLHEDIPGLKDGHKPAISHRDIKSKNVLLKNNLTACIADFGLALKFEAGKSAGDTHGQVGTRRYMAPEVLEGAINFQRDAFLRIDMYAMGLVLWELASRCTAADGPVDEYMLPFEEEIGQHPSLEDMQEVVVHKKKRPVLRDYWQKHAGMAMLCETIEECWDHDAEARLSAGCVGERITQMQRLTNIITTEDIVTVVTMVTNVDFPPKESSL
# Sequence (chain, as listed by the source, chain 2 of 2): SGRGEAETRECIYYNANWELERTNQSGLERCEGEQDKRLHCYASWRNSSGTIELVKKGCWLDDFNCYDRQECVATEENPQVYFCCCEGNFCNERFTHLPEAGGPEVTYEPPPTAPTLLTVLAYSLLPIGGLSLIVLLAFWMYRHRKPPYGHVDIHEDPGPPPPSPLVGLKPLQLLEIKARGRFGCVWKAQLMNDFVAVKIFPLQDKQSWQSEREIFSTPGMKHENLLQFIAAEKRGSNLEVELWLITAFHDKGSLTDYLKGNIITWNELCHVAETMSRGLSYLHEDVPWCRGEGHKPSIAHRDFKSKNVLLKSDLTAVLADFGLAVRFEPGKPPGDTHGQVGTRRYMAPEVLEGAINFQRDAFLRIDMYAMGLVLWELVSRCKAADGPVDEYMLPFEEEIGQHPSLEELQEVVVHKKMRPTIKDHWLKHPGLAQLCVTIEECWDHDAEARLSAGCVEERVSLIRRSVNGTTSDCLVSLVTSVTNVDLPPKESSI
# test summary: cell-based or functional assay
Please respond with reported IC90, Activin SMAD RGA for every item in the list.
Answers are plain numbers, in nM.

Antibody Hefaknöpfla (antibody, V domains shown, full-length IgG) VH: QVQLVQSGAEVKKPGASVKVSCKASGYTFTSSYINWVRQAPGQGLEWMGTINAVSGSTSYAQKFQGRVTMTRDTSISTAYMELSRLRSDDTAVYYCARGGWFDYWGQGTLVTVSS VL: QSALTQPASVSGSPGQSITISCTGTSSDVGSKNYVNWYQQHPGKAPKLMIYGVSKRESGVSNRFSGSKSGNTASLTISGLQAEDEADYYCGTFAGGKYYGVFGGGTKLTVL = 2.16
Antibody Rippla (antibody, V domains shown, full-length IgG; also called Ripp1a) VH: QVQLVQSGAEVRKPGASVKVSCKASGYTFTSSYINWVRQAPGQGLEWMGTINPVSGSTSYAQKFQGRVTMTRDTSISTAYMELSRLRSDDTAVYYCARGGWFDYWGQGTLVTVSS VL: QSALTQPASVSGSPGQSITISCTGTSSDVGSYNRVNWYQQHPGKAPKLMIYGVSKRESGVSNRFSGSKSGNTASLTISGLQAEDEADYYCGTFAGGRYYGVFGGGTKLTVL = 1.58
Antibody Duuranad (antibody, V domains shown, full-length IgG) VH: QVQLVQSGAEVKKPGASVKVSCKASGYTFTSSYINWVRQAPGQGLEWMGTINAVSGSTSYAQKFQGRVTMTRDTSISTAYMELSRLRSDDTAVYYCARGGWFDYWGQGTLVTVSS VL: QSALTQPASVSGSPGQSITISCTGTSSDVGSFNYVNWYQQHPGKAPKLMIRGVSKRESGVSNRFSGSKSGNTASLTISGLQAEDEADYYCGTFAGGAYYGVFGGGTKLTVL = 2.22

Request: For Antibody Fasnetsküchla (antibody, V domains shown, full-length IgG) VH: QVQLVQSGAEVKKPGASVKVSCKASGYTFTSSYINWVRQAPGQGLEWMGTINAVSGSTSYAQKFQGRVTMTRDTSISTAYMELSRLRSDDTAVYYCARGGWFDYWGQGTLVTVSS VL: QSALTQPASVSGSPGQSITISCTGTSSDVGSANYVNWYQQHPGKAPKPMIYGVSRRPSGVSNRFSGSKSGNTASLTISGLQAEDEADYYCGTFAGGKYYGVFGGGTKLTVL , what is its reported IC90, Activin SMAD RGA?
Result: 3.82
